- Tested on: HeLa Kyoto
- experimental-protocol: thermal stability score vs G1/S (z-score of summed log2 fold changes over temperatures); higher = more thermally stable than in G1/S
- experimental-parameters: cell cycle stage: early G1 (4.5 h after nocodazole release)
Quick rule: thermal stability score of at least -0.5 means Criterion met, below that means Criterion not met.

residue-codes	tested-on	class-name
MTEADVNPKAYPLADAHLTKKLLDLVQQSCNYKQLRKGANEATKTLNRGISEFIVMAADAEPLEIILHLPLLCEDKNVPYVFVRSKQALGRACGVSRPVIACSVTIKEGSQLKQQIQSIQQSIERLLV [SNU13]	HeLa Kyoto	Criterion not met
MVGSLNCIVAVSQNMGIGKNGDLPWPPLRNEFRYFQRMTTTSSVEGKQNLVIMGKKTWFSIPEKNRPLKGRINLVLSRELKEPPQGAHFLSRSLDDALKLTEQPELANKVDMVWIVGGSSVYKEAMNHPGHLKLFVTRIMQDFESDTFFPEIDLEKYKLLPEYPGVLSDVQEEKGIKYKFEVYEKND [DHFR]	HeLa Kyoto	Criterion met
MICTFLRAVQYTEKLHRSSAKRLLLPYIVLNKACLKTEPSLRCGLQYQKKTLRPRCILGVTQKTIWTQGPSPRKAKEDGSKQVSVHRSQRGGTAVPTSQKVKEAGRDFTYLIVVLFGISITGGLFYTIFKELFSSSSPSKIYGRALEKCRSHPEVIGVFGESVKGYGEVTRRGRRQHVRFTEYVKDGLKHTCVKFYIEGSEPGKQGTVYAQVKENPGSGEYDFRYIFVEIESYPRRTIIIEDNRSQDD [TIMM21]	HeLa Kyoto	Criterion met
MVGRNSAIAAGVCGALFIGYCIYFDRKRRSDPNFKNRLRERRKKQKLAKERAGLSKLPDLKDAEAVQKFFLEEIQLGEELLAQGEYEKGVDHLTNAIAVCGQPQQLLQVLQQTLPPPVFQMLLTKLPTISQRIVSAQSLAEDDVE [TOMM20]	HeLa Kyoto	Criterion not met
MAEPTVCSFLTKVLCAHGGRMFLKDLRGHVELSEARLRDVLQRAGPERFLLQEVETQEGLGDAEAEAAAGAVGGGGTSAWRVVAVSSVRLCARYQRGECQACDQLHFCRRHMLGKCPNRDCWSTCTLSHDIHTPVNMQVLKSHGLFGLNENQLRILLLQNDPCLLPEVCLLYNKGEALYGYCNLKDKCNKFHVCKSFVKGECKLQTCKRSHQLIHAASLKLLQDQGLNIPSVVNFQIISTYKHMKLHKMLENTDNSSPSTEHSQGLEKQGVHAAGAAEAGPLASVPAQSAKKPCPVSCEK [ZC3HAV1L]	HeLa Kyoto	Criterion met
MSEVTRSLLQRWGASFRRGADFDSWGQLVEAIDEYQILARHLQKEAQAQHNNSEFTEEQKKTIGKIATCLELRSAALQSTQSQEEFKLEDLKKLEPILKNILTYNKEFPFDVQPVPLRRILAPGEEENLEFEEDEEEGGAGAGSPDSFPARVPGTLLPRLPSEPGMTLLTIRIEKIGLKDAGQCIDPYITVSVKDLNGIDLTPVQDTPVASRKEDTYVHFNVDIELQKHVEKLTKGAAIFFEFKHYKPKKRFTSTKCFAFMEMDEIKPGPIVIELYKKPTDFKRKKLQLLTKKPLYLHLHQTLHKE [AIDA]	HeLa Kyoto	Criterion met

* * *

- System: HeLa Kyoto
- experimental-protocol: solubility in G1/S (NP-40 vs SDS abundance) (log2 ratio); higher = more soluble
- experimental-parameters: cell cycle stage: G1/S
Quick rule: solubility in G1/S (log2) of at least 0.3 means Met, below that means Not met.

residue-codes	class-name
MTSFEDADTEETVTCLQMTVYHPGQLQCGIFQSISFNREKLPSSEVVKFGRNSNICHYTFQDKQVSRVQFSLQLFKKFNSSVLSFEIKNMSKKTNLIVDSRELGYLNKMDLPYRCMVRFGEYQFLMEKEDGESLEFFETQFILSPRSLLQENNWPPHRPIPEYGTYSLCSSQSSSPTEMDENES [TIFA]	Not met
MAKAYDHLFKLLLIGDSGVGKTCLIIRFAEDNFNNTYISTIGIDFKIRTVDIEGKKIKLQVWDTAGQERFKTITTAYYRGAMGIILVYDITDEKSFENIQNWMKSIKENASAGVERLLLGNKCDMEAKRKVQKEQADKLAREHGIRFFETSAKSSMNVDEAFSSLARDILLKSGGRRSGNGNKPPSTDLKTCDKKNTNKCSLG [RAB13]	Not met
MAAWSPAAAAPLLRGIRGLPLHHRMFATQTEGELRVTQILKEKFPRATAIKVTDISGGCGAMYEIKIESEEFKEKRTVQQHQMVNQALKEEIKEMHGLRIFTSVPKR [BOLA3]	Met
MLARAARGTGALLLRGSLLASGRAPRRASSGLPRNTVVLFVPQQEAWVVERMGRFHRILEPGLNILIPVLDRIRYVQSLKEIVINVPEQSAVTLDNVTLQIDGVLYLRIMDPYKASYGVEDPEYAVTQLAQTTMRSELGKLSLDKVFRERESLNASIVDAINQAADCWGIRCLRYEIKDIHVPPRVKESMQMQVEAERRKRATVLESEGTRESAINVAEGKKQAQILASEAEKAEQINQAAGEASAVLAKAKAKAEAIRILAAALTQHNGDAAASLTVAEQYVSAFSKLAKDSNTILLPSNPGDVTSMVAQAMGVYGALTKAPVPGTPDSLSSGSSRDVQGTDASLDEELDRVKMS [STOML2]	Not met
MGCTLSAEDKAAVERSKMIDRNLREDGEKAAKEVKLLLLGAGESGKSTIVKQMKIIHEDGYSEDECKQYKVVVYSNTIQSIIAIIRAMGRLKIDFGEAARADDARQLFVLAGSAEEGVMTPELAGVIKRLWRDGGVQACFSRSREYQLNDSASYYLNDLDRISQSNYIPTQQDVLRTRVKTTGIVETHFTFKDLYFKMFDVGGQRSERKKWIHCFEGVTAIIFCVALSDYDLVLAEDEEMNRMHESMKLFDSICNNKWFTETSIILFLNKKDLFEEKIKRSPLTICYPEYTGSNTYEEAAAYIQCQFEDLNRRKDTKEIYTHFTCATDTKNVQFVFDAVTDVIIKNNLKECGLY [GNAI3]	Not met
MSCESSMVLGYWDIRGLAHAIRLLLEFTDTSYEEKRYTCGEAPDYDRSQWLDVKFKLDLDFPNLPYLLDGKNKITQSNAILRYIARKHNMCGETEEEKIRVDIIENQVMDFRTQLIRLCYSSDHEKLKPQYLEELPGQLKQFSMFLGKFSWFAGEKLTFVDFLTYDILDQNRIFDPKCLDEFPNLKAFMCRFEALEKIAAYLQSDQFCKMPINNKMAQWGNKPVC [GSTM3]	Not met
